Test Target: human IGF-1R (soluble, analyte in SPR) (human) (UniProt P08069)
Test Summary: SPR (ProteOn XPR36), 25 C, Fab captured by anti-Fab, IGF-1R as analyte
Parameter Measured: koff (s⁻¹)
Numbers only, in s⁻¹.

Binder	koff / s⁻¹
<IGF-1R> L31D11 Fab fragment (affinity-matured <IGF-1R> HUMAB-Clone 18) (Fab, V domains shown) VH: QVELVESGGGVVQPGRSQRLSCAASGFTFSSYGMHWVRQAPGKGLEWVAIIWFDGSSTYYADSVRGRFTISRDNSKNTLYLQMNSLRAEDTAVYFCARELGRRYFDLWGRGTLVSVSS VL: EIVLTQSPATLSLSPGERATLSCRASRSVYSSLAWYQQKPGQAPRLLIYKASSRATGIPARFSGSGSGTDFTLTISSLEPEDFAVYYCQQRSKWPPWTFGQGTKVESK	0.000153
<IGF-1R> L39D7 Fab fragment (affinity-matured <IGF-1R> HUMAB-Clone 18) (Fab, V domains shown) VH: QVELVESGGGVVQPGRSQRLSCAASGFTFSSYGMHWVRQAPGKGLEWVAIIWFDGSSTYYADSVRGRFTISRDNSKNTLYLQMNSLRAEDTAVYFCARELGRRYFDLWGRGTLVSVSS VL: EIVLTQSPATLSLSPGERATLSCRASQSVSKQLAWYQQKPGQAPRLLIYNASKRATGIPARFSGSGSGTDFTLTISSLEPEDFAVYYCQQRSKYPPWTFGQGTKVESK	0.00027
<IGF-1R> L37F7 Fab fragment (affinity-matured <IGF-1R> HUMAB-Clone 18) (Fab, V domains shown) VH: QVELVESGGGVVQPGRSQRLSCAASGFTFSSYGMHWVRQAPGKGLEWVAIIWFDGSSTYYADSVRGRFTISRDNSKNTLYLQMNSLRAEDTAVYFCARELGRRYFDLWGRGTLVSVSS VL: EIVLTQSPATLSLSPGERATLSCRASQSVSSQLAWYQQKPGQAPRLLIYKATNRATGIPARFSGSGSGTDFTLTISSLEPEDFAVYYCQQRSKYPPWTFGQGTKVESK	0.000237

QUERY: Reported koff, binder <IGF-1R> F13B5 Fab fragment (affinity-matured <IGF-1R> HUMAB-Clone 18) (Fab, V domains shown) VH: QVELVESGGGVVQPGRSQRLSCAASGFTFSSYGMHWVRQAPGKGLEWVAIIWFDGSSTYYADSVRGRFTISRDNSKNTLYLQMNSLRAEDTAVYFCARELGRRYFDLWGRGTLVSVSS VL: EIVLTQSPATLSLSPGERATLSCRASQSVSSYLAWYQQKPGQAPRLLIYQASKRATGIPARFSGSGSGTDFTLTISSLEPEDFAVYYCQQRSKYPPWTFGQGTKVESK : ____
RESULT: 0.00025
